# credit: ChEMBL document CHEMBL1143464

TARGET OF ASSAY: Progesterone receptor (Homo sapiens, UniProt P06401)
Sequence (P06401 whole entry): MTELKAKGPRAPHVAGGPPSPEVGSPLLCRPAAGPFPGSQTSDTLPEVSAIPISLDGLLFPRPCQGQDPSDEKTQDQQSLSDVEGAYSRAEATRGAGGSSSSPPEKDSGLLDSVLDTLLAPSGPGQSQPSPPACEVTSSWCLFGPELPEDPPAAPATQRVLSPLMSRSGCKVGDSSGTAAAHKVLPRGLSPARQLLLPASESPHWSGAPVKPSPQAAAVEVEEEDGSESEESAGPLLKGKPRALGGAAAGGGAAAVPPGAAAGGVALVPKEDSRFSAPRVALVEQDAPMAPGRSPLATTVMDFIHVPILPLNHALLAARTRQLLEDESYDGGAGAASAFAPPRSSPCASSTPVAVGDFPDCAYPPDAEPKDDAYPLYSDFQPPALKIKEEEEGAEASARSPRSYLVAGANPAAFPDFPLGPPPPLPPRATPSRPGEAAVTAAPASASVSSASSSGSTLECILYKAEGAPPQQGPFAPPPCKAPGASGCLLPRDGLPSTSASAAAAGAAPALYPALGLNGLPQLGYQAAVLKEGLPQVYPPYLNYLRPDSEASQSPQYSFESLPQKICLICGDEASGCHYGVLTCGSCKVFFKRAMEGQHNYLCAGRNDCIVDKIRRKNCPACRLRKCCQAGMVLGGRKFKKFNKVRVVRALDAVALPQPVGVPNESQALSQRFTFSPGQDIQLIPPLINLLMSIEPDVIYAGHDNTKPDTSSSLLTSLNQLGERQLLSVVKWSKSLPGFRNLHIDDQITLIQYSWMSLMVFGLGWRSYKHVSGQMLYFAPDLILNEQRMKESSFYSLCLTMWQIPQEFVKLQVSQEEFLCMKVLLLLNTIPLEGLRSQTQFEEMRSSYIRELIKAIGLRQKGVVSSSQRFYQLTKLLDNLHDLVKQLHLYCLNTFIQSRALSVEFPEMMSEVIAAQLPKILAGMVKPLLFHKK
READOUT KIND: log10 IC50 (log10 of the value in nM)
A difference of one corresponds to tenfold IC50; all values are log10 with IC50 in nM.

Look over these answered cases.
COc1ccc(F)cc1C(C)(C)CC(O)(Cc1ccccc1)C(=O)Nc1ccc2c(c1)COC2=O (centres undefined) = 1.54
Cc1noc(=O)c2ccc(NC(=O)C(O)(CC(C)(C)c3cc(F)ccc3O)C(F)(F)F)cc12 (centres undefined) = 1.34
CC(C)(CC(O)(CC1CCCCC1)C(=O)Nc1ccc2c(c1)COC2=O)c1ccccc1 (stereo in doubt; 6) = 1.28
CC(C)(CC(O)(CC1CCCCC1)C(=O)Nc1ccc2c(c1)COC2=O)c1ccccc1 (single isomer, unassigned) = 1.54
CC(C)(C)c1ccc(CC(O)(CC(C)(C)c2ccccc2)C(=O)Nc2ccc3c(c2)COC3=O)cc1 (centres undefined) = 2.52
COc1ccc(F)cc1C(C)(C)CC(O)(CNc1ccc2c(c1)COC2=O)Cc1ccccc1 (centres undefined) = 1.90

Hey, can you go through the list below and give me log10 IC50 for every item?
1. CC(C)(CC(O)(Cc1ccccc1O)C(=O)Nc1ccc2c(c1)COC2=O)c1ccccc1 (centres undefined)
2. CC(C)(CC(O)(C(=O)Nc1ccc2c(c1)COC2=O)c1ccccc1)c1ccccc1 (centres undefined)

[reply]
1: 1.67; 2: 2.38
